# Assay procedure: protein stability index of a GFP-peptide fusion (GPS, HEK-293T) (PSI 1-6); higher = more stable;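 also: 24-mer peptide tiles fused after GFP, lentivirally expressed, FACS-sorted into six equal bins by GFP/DsRed ratio, decoded by Illumina sequencing, PSI is the read-weighted mean bin number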
# Recorded conditions: treatment: DMSO; c terminus: a fixed tail appended
Output 1.0 for protein stability index not less than 3; output 0.0 otherwise.

hey, is protein stability index for this one >= 3? STPVRREVTDKEQEFAARAAKQLE [EPB41L3] 1.0

Does the sequence YNIPHGPVVGSTRRLYEKKIFEYE [EMD] have recorded protein stability index that is 3 or more? 1.0

Is the recorded value of protein stability index equal to or greater than 3 for this sequence? DCLEGKKSKHAPRGTHLWEFIRDI [ELF3] 0.0

Could you verify whether the entry TRRHPGGSRVISHYAGQDATDPFV [FADS1] shows protein stability index of no less than 3? 1.0

Threshold query (protein stability index >= 3) on ESLKEELLSLKQNHEQEVNTLRCQ [KRT33B] 1.0
